- TARGET SYSTEM: HCV polymerase H544 1a 3X (UniProt P27958)
- Construct: fused on or other part: 6 His tag at the C-terminus, for the BK (1b) enzyme
- ASSAY EXPLANATION: Assay of enzyme (HCV polymerase) inhibitory activity, H544 1a 3X
- Type: biochemical
- COND: read-out: H544 1a 3X IC50, 25° C., 90 min, [5,6-3H]UTP incorporation
Counter-ions that a name gives are not always drawn.
# maps each entry to its IC50

{"MOLECULE": "CN(C)CCn1c(-c2ccc(OCc3cc(S(C)(=O)=O)ccc3N3CCOCC3)cc2)c(C2CCCCC2)c2sc(C(=O)O)cc21 [Example 56, dihydrochloride]", "IC50": "< 0.1 µM"}
{"MOLECULE": "CN(CCN1CCOCC1)CCn1c(-c2ccc(OCc3ccccc3)cc2)c(C2CCCCC2)c2sc(C(=O)O)cc21 [Example 58, dihydrochloride]", "IC50": "0.1 to 1 µM"}
{"MOLECULE": "Cn1c(-c2ccc(OCc3cc(NC(=O)CN4CCOCC4)ccc3N3CCOCC3)cc2)c(C2CCCCC2)c2sc(C(=O)O)cc21 [Example 41, dihydrochloride]", "IC50": "< 0.1 µM"}
{"MOLECULE": "O=C(O)c1cc2nc(-c3ccc(OCc4cc(N5CCCC5=O)ccc4-c4ccc(Cl)cc4)cc3)n(C3CCCCC3)c2s1 [Example 3, hydrochloride]", "IC50": "0.1 to 1 µM"}
